Biological target: α7 nicotinic acetylcholine receptor (Homo sapiens, UniProt P36544)
Sequence (P36544 23-502): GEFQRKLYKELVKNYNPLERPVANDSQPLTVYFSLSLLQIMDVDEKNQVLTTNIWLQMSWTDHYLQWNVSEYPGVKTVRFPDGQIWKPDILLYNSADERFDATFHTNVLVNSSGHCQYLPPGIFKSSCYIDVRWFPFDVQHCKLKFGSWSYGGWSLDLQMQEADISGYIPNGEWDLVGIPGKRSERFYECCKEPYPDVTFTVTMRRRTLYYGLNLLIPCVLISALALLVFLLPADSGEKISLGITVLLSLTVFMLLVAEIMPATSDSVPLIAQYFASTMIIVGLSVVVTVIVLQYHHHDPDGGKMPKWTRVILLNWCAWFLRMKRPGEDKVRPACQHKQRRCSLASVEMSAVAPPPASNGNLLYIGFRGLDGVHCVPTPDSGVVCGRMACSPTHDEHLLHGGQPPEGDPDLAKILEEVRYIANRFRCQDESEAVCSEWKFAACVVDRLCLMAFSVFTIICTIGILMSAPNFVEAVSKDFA

{"compound": "O=C(c1ccc(-c2cccc(C(F)(F)F)c2)o1)N1CCN2CCC1CC2 [NS6740]", "EC50, nM": 420}
